tested on: normal human epidermal keratinocytes (NHEK); test: Cytotoxicity on NHEK monolayer cultures (MTT reduction assay and morphological observation); format: cell-based; details: 100 μM
// reported Viability (%) Mean for each item listed
Just the number please, in %, no unit attached.

COc1ccc(C2CC(=O)c3c(O)cc(O)cc3O2)cc1O (stereo not shown) [Hesperetin, 3′,5,7-Trihydroxy-4′-methoxyflavanone]    99
O=C1CC(c2ccc(O)cc2)Oc2cc(O)cc(O)c21 (stereo not shown) [Naringenin, 4′,5,7-Trihydroxyflavanone]    75

Result for C[C@@H]1O[C@@H](Oc2cc(O)cc3c2C(=O)CC(c2ccc(O)cc2)O3)[C@H](O)[C@H](O)[C@H]1O (mixture of isomers) [NR1, Naringenin-5-O-α-L-rhamnoside] , tested on normal human epidermal keratinocytes (NHEK), Viability (%) Mean: 86

Result for COc1ccc(C2CC(=O)c3c(cc(O)cc3O[C@@H]3O[C@@H](C)[C@H](O)[C@@H](O)[C@H]3O)O2)cc1O (stereo partly drawn) [HESR1, Hesperetin-5-O-α-L-rhamnoside] , tested on normal human epidermal keratinocytes (NHEK), Viability (%) Mean: 97

* * *

tested on: normal human epidermal keratinocytes (NHEK); assay: Cytotoxicity on NHEK monolayer cultures (MTT reduction assay and morphological observation); assay type: cell-based; details: 50 μM
reported_property: Viability (%) Mean
Just the number please, in %, no unit attached.

The examples below pair each entry with its known result.
COc1ccc(C2CC(=O)c3c(cc(O)cc3O[C@@H]3O[C@@H](C)[C@H](O)[C@@H](O)[C@H]3O)O2)cc1O (stereo partly drawn) [HESR1, Hesperetin-5-O-α-L-rhamnoside]    87
O=C1CC(c2ccc(O)cc2)Oc2cc(O)cc(O)c21 (stereo not shown) [Naringenin, 4′,5,7-Trihydroxyflavanone]    89
C[C@@H]1O[C@@H](Oc2cc(O)cc3c2C(=O)CC(c2ccc(O)cc2)O3)[C@H](O)[C@H](O)[C@H]1O (mixture of isomers) [NR1, Naringenin-5-O-α-L-rhamnoside]    84

Field: next compound
Query COc1ccc(C2CC(=O)c3c(O)cc(O)cc3O2)cc1O (stereo not shown) [Hesperetin, 3′,5,7-Trihydroxy-4′-methoxyflavanone] yields Viability (%) Mean of 106

* * *

// reported Viability (%) Mean for each item listed
Test system: normal human epidermal keratinocytes (NHEK)
Assay: Cytotoxicity on NHEK monolayer cultures (MTT reduction assay and morphological observation)
Assay type: cell-based
Settings: 1 μM
Description: To determine the cytotoxicity of flavonoid-5-O-α-L-rhamnosides tests were performed versus their aglycon derivatives in cell monolayer cultures. For this purpose concentrations ranging from 1 μM to 250 μM were chosen. The viability of normal human epidermal keratinocytes (NHEK) was twice evaluated by a MTT reduction assay and morphological observation with a microscope. […] After a medium change at same test concentration cells were incubated a further 24 h until viability was determined. […]
Just the number please, in %, no unit attached.

The examples below pair each entry with its known result.
COc1ccc(C2CC(=O)c3c(O)cc(O)cc3O2)cc1O (stereo not shown) [Hesperetin, 3′,5,7-Trihydroxy-4′-methoxyflavanone]    105
C[C@@H]1O[C@@H](Oc2cc(O)cc3c2C(=O)CC(c2ccc(O)cc2)O3)[C@H](O)[C@H](O)[C@H]1O (mixture of isomers) [NR1, Naringenin-5-O-α-L-rhamnoside]    101
COc1ccc(C2CC(=O)c3c(cc(O)cc3O[C@@H]3O[C@@H](C)[C@H](O)[C@@H](O)[C@H]3O)O2)cc1O (stereo partly drawn) [HESR1, Hesperetin-5-O-α-L-rhamnoside]    97

Field: next compound
Query O=C1CC(c2ccc(O)cc2)Oc2cc(O)cc(O)c21 (stereo not shown) [Naringenin, 4′,5,7-Trihydroxyflavanone] yields Viability (%) Mean of 95

* * *

system: normal human epidermal keratinocytes (NHEK); assay: Cytotoxicity on NHEK monolayer cultures (MTT reduction assay and morphological observation); format: cell-based; details: 2.5 μM
// reported Viability (%) Mean for each item listed
Just the number please, in %, no unit attached.

The examples below pair each entry with its known result.
O=C1CC(c2ccc(O)cc2)Oc2cc(O)cc(O)c21 (stereo not shown) [Naringenin, 4′,5,7-Trihydroxyflavanone]    93
COc1ccc(C2CC(=O)c3c(O)cc(O)cc3O2)cc1O (stereo not shown) [Hesperetin, 3′,5,7-Trihydroxy-4′-methoxyflavanone]    103
C[C@@H]1O[C@@H](Oc2cc(O)cc3c2C(=O)CC(c2ccc(O)cc2)O3)[C@H](O)[C@H](O)[C@H]1O (mixture of isomers) [NR1, Naringenin-5-O-α-L-rhamnoside]    93

Field: next compound
Query COc1ccc(C2CC(=O)c3c(cc(O)cc3O[C@@H]3O[C@@H](C)[C@H](O)[C@@H](O)[C@H]3O)O2)cc1O (stereo partly drawn) [HESR1, Hesperetin-5-O-α-L-rhamnoside] yields Viability (%) Mean of 100

* * *

Tested on: normal human epidermal keratinocytes (NHEK)
Test: Cytotoxicity on NHEK monolayer cultures (MTT reduction assay and morphological observation)
Format: cell-based
Settings: 10 μM
Protocol: To determine the cytotoxicity of flavonoid-5-O-α-L-rhamnosides tests were performed versus their aglycon derivatives in cell monolayer cultures. For this purpose concentrations ranging from 1 μM to 250 μM were chosen. The viability of normal human epidermal keratinocytes (NHEK) was twice evaluated by a MTT reduction assay and morphological observation with a microscope. […] After a medium change at same test concentration cells were incubated a further 24 h until viability was determined. […]
reported_property: Viability (%) Mean

The examples below pair each entry with its known result.
C[C@@H]1O[C@@H](Oc2cc(O)cc3c2C(=O)CC(c2ccc(O)cc2)O3)[C@H](O)[C@H](O)[C@H]1O (mixture of isomers) [NR1, Naringenin-5-O-α-L-rhamnoside]    97%
COc1ccc(C2CC(=O)c3c(O)cc(O)cc3O2)cc1O (stereo not shown) [Hesperetin, 3′,5,7-Trihydroxy-4′-methoxyflavanone]    103%

Query O=C1CC(c2ccc(O)cc2)Oc2cc(O)cc(O)c21 (stereo not shown) [Naringenin, 4′,5,7-Trihydroxyflavanone] yields Viability (%) Mean of 95%

Query COc1ccc(C2CC(=O)c3c(cc(O)cc3O[C@@H]3O[C@@H](C)[C@H](O)[C@@H](O)[C@H]3O)O2)cc1O (stereo partly drawn) [HESR1, Hesperetin-5-O-α-L-rhamnoside] yields Viability (%) Mean of 95%

* * *

test system: normal human epidermal keratinocytes (NHEK); assay: Cytotoxicity on NHEK monolayer cultures (MTT reduction assay and morphological observation); assay type: cell-based; conditions: 25 μM
// reported Viability (%) Mean for each item listed

The examples below pair each entry with its known result.
COc1ccc(C2CC(=O)c3c(O)cc(O)cc3O2)cc1O (stereo not shown) [Hesperetin, 3′,5,7-Trihydroxy-4′-methoxyflavanone]    108%
COc1ccc(C2CC(=O)c3c(cc(O)cc3O[C@@H]3O[C@@H](C)[C@H](O)[C@@H](O)[C@H]3O)O2)cc1O (stereo partly drawn) [HESR1, Hesperetin-5-O-α-L-rhamnoside]    101%
C[C@@H]1O[C@@H](Oc2cc(O)cc3c2C(=O)CC(c2ccc(O)cc2)O3)[C@H](O)[C@H](O)[C@H]1O (mixture of isomers) [NR1, Naringenin-5-O-α-L-rhamnoside]    95%

Result for O=C1CC(c2ccc(O)cc2)Oc2cc(O)cc(O)c21 (stereo not shown) [Naringenin, 4′,5,7-Trihydroxyflavanone] , tested on normal human epidermal keratinocytes (NHEK), Viability (%) Mean: 92%

* * *

system: normal human epidermal keratinocytes (NHEK); assay: Cytotoxicity on NHEK monolayer cultures (MTT reduction assay and morphological observation); format: cell-based; conditions: 5 μM
reported_property: Viability (%) Mean
Just the number please, in %, no unit attached.

COc1ccc(C2CC(=O)c3c(O)cc(O)cc3O2)cc1O (stereo not shown) [Hesperetin, 3′,5,7-Trihydroxy-4′-methoxyflavanone]    106

Query C[C@@H]1O[C@@H](Oc2cc(O)cc3c2C(=O)CC(c2ccc(O)cc2)O3)[C@H](O)[C@H](O)[C@H]1O (mixture of isomers) [NR1, Naringenin-5-O-α-L-rhamnoside] yields Viability (%) Mean of 86

Query O=C1CC(c2ccc(O)cc2)Oc2cc(O)cc(O)c21 (stereo not shown) [Naringenin, 4′,5,7-Trihydroxyflavanone] yields Viability (%) Mean of 92

Query COc1ccc(C2CC(=O)c3c(cc(O)cc3O[C@@H]3O[C@@H](C)[C@H](O)[C@@H](O)[C@H]3O)O2)cc1O (stereo partly drawn) [HESR1, Hesperetin-5-O-α-L-rhamnoside] yields Viability (%) Mean of 88

* * *

test system: normal human epidermal keratinocytes (NHEK); assay: Cytotoxicity on NHEK monolayer cultures (MTT reduction assay and morphological observation); type: cell-based; details: 250 μM
reported_property: Viability (%) Mean
Just the number please, in %, no unit attached.

C[C@@H]1O[C@@H](Oc2cc(O)cc3c2C(=O)CC(c2ccc(O)cc2)O3)[C@H](O)[C@H](O)[C@H]1O (mixture of isomers) [NR1, Naringenin-5-O-α-L-rhamnoside]    83
COc1ccc(C2CC(=O)c3c(O)cc(O)cc3O2)cc1O (stereo not shown) [Hesperetin, 3′,5,7-Trihydroxy-4′-methoxyflavanone]    57
O=C1CC(c2ccc(O)cc2)Oc2cc(O)cc(O)c21 (stereo not shown) [Naringenin, 4′,5,7-Trihydroxyflavanone]    47

Field: next compound
Query COc1ccc(C2CC(=O)c3c(cc(O)cc3O[C@@H]3O[C@@H](C)[C@H](O)[C@@H](O)[C@H]3O)O2)cc1O (stereo partly drawn) [HESR1, Hesperetin-5-O-α-L-rhamnoside] yields Viability (%) Mean of 96
